Measured max activation, listed per entry.
Experiment: compounds inducing hypoxia-responsive transcription – cell-based, U2OS HRE-luc, luminescence, dry powder, set 2, dose response (AID 488805)
Conditions: U2OS HRE-luciferase reporter, HIF pathway activation, luminescence; at 0.5 µM; hits give high values
Respond with the bare value in %.

Here's what some known entries look like.
{"columns": ["mol-smiles", "units-symbol", "readout-number"],
 "data": [
  ["Cc1ccccc1CNC(=O)c1cc(-c2ccccc2)on1", "%", 2.16],
  ["CN(C)CCNC(=O)c1cc(-c2ccccc2)on1", "%", -2.73],
  ["O=C(Nc1ccc2ccccc2n1)c1cc(-c2ccccc2)on1", "%", -5.52],
  ["O=C(Nc1cn2ccccc2n1)c1cc(-c2ccccc2)on1", "%", -5.84],
  ["Cn1c(-c2ccccc2)cnc1Nc1nc(-c2ccccn2)nnc1-c1ccccc1", "%", -0.998]
]}

Given item `Cc1cccc(CNC(=O)c2cc(-c3ccccc3)on2)c1` , the value recorded as its max activation is -4.69

Given item `O=C(Nc1ncc(-c2ccccc2)o1)c1cc(-c2ccccc2)on1` , the value recorded as its max activation is -7.77
